TEST SYSTEM: human dopamine D2-long (D2) receptor (Homo sapiens (Human), UniProt P14416)
Sequence (P14416 whole entry): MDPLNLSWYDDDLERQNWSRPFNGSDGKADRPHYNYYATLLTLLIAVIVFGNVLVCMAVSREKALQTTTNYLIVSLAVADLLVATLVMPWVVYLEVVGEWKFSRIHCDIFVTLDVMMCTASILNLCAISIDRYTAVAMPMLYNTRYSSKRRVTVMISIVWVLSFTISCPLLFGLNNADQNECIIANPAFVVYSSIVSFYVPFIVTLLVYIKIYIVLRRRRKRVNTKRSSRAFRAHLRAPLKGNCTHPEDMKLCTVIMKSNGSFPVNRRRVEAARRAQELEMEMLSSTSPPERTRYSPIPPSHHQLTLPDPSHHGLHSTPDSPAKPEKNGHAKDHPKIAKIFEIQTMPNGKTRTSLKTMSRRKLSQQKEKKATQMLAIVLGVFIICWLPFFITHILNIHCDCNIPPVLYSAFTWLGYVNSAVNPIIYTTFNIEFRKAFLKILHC
ASSAY PROCEDURE: Human D2-like receptor competition binding in HEK cells, D2
STUDY CONDITIONS: hD2L
pKi: −log10 of the molar value.
So basically: pKi at 7 or higher? That is TRUE. Lower than 7? That is FALSE.

# COMPOUND, CLASSIFICATION
rows = [
    ("O=C(NC/C=C/CN1CCN(c2cccc(Cl)c2Cl)CC1)c1ccc(-c2cccc[n+]2[O-])cc1", "TRUE"),
    ("O=C(NCCC(O)CN1CCN(c2cccc(Cl)c2Cl)CC1)c1ccc(-c2ccccn2)cc1 (centres unmarked)", "FALSE"),
    ("COc1ccccc1N1CCN(CC(O)CCNC(=O)c2cc3ccccc3[nH]2)CC1 (centres unmarked)", "FALSE"),
    ("O=C(NC/C=C/CN1CCN(c2cccc(Cl)c2Cl)CC1)c1ccc(-c2cccc(=O)[nH]2)cc1", "TRUE"),
    ("O=C(NCCC(O)CN1CCN(c2cccc(Cl)c2Cl)CC1)c1cc2ccccc2o1 (centres unmarked)", "FALSE"),
]

Now turn to the next compound.
[in] // inclusive: pKi at least 7? input: COc1ccccc1N1CCN(CCC(O)CNC(=O)c2cc3ccccc3[nH]2)CC1 (centres unmarked)
[out] TRUE
